System: E31 (patient-derived glioblastoma stem cells of proneural subtype)
Assay: surviving fraction (nuclei count normalised to DMSO); higher = more cells surviving (less toxic)
Settings: 3000 nM; exposure time: 72 h
ASSAY METRIC: surviving fraction

Lab note: record surviving fraction of `CC(C)CC(=O)N[C@H](C(=O)N[C@H](C(=O)N[C@@H](CC(C)C)[C@@H](O)CC(=O)N[C@@H](C)C(=O)N[C@@H](CC(C)C)[C@@H](O)CC(=O)O)C(C)C)C(C)C` tested on E31.
0.801

Send back E31 surviving fraction of `C[C@H](Cc1cc2c(c(C(N)=O)c1)N(CCCO)CC2)NCCOc1ccccc1OCC(F)(F)F` only.
0.852

Report value only: surviving fraction, E31, COC(=O)C1=C(C)NC(C)=C(C(=O)OCC(C)C)C1c1ccccc1[N+](=O)[O-] (stereo not drawn)
0.938

----------
Could you please report measured phenotypic distance for the items listed next?
Tested on: FT3469 (normal neural stem cell line)
Test: phenotypic distance (Euclidean, principal components) from DMSO controls (arbitrary units); higher = stronger morphological change
Settings: 4.1 nM; exposure time: 72 h
Structures can show the parent of a compound that is named as a salt.
// no unit, no text: just the number

Tell us which phenotypic distance value is on record for CC(C)N1CCN(c2ccc(OCC3COC(Cn4cncn4)(c4ccc(Cl)cc4Cl)O3)cc2)CC1 (centres undefined)
0.835

Input `Cc1ccc2c(c1)C1(CCN(CCc3nc(-c4ccccc4)oc3C)CC1)OC(=O)N2` , output reported phenotypic distance.
1.5

For the molecule CC(C)NCC(O)c1ccc(O)c(O)c1 (centres undefined) [Isoproterenol hydrochloride] , give its measured phenotypic distance value.
1.05

Answer with the recorded phenotypic distance for the molecule listed here: `C=CC(=O)Nc1cccc(Oc2nc(Nc3ccc(N4CCN(C)CC4)cc3)nc3ccsc23)c1`
1.28

State its phenotypic distance for this molecule: Nc1ccn([C@@H]2O[C@H](CO)[C@@H](O)C2(F)F)c(=O)n1 [Gemcitabine HCl]
1.82

Specify reported phenotypic distance for the molecule shown: `CC(C)C[C@H](NC(=O)CNC(=O)c1cc(Cl)ccc1Cl)B(O)O`
2.53

For the molecule `Nc1ccc(-c2ccc3ncc4ccc(=O)n(-c5cccc(C(F)(F)F)c5)c4c3c2)cn1` , give its measured phenotypic distance value.
1.78

Please report the measured phenotypic distance for CN(C)C(=O)Oc1ccc[n+](C)c1 [Pyridostigmine iodide]
0.42

Using known records, supply phenotypic distance for `O=c1[nH]c(=O)n([C@H]2C[C@H](O)[C@@H](CO)O2)cc1I`
0.962

----------
Test system: E21 (patient-derived glioblastoma stem cells of mesenchymal subtype)
Experiment: phenotypic distance (Euclidean, principal components) from DMSO controls (arbitrary units); higher = stronger morphological change
Conditions: 3000 nM; exposure time: 72 h
Structures can show the parent of a compound that is named as a salt.
# binarize phenotypic distance: threshold 2 inclusive, high side rule met, low side rule not met

Answer whether phenotypic distance of C[C@H](Cc1cc2c(c(C(N)=O)c1)N(CCCO)CC2)NCCOc1ccccc1OCC(F)(F)F [Silodosin] is greater than or equal to 2.
rule not met

State whether the measured phenotypic distance reaches 2, counting equality as reaching it, for Cc1ccc(C(=O)Nc2ccc(CN3CCN(C)CC3)c(C(F)(F)F)c2)cc1C#Cc1cnc2cccnn12 [Ponatinib]
rule met

I'd appreciate it if you could say whether Nc1nc2n[nH]nc2c(=O)[nH]1 [Azaguanine-8] has phenotypic distance at least equal to 2.
rule met

Given CN(C)CCN(Cc1ccc(Cl)cc1)c1ccccn1 [Chloropyramine hydrochloride] , state whether its phenotypic distance is at least 2.
rule not met

# check: phenotypic distance of CC(C)NCC(O)c1ccc(O)c(O)c1 (stereo not given) [Isoproterenol hydrochloride] is greater than or equal to 2
rule not met

----------
Test system: E31
Assay: surviving fraction (nuclei count normalised to DMSO); higher = more cells surviving (less toxic)
Conditions: 1000 nM; exposure time: 72 h
Counter-ions that a name gives are not always drawn.
ASSAY METRIC: surviving fraction
Just the number, please, no unit after it.

Enter surviving fraction (test system E31) for C/C(=C\c1csc(C)n1)[C@@H]1C[C@@H]2O[C@]2(C)CCC[C@H](C)[C@H](O)[C@@H](C)C(=O)C(C)(C)[C@@H](O)CC(=O)N1 [Ixabepilone]
0.208

Please respond with reported surviving fraction (system E31) for NC1CCN(c2nc3c(cc2F)c(=O)c(C(=O)O)cn3-c2ccc(F)cc2F)C1 (stereo not drawn) [Tosufloxacin hydrochloride] .
0.836

State surviving fraction (E31) of C[C@@H](O[C@H]1OCCN(Cc2n[nH]c(=O)[nH]2)[C@H]1c1ccc(F)cc1)c1cc(C(F)(F)F)cc(C(F)(F)F)c1 [Aprepitant] .
1.04

For E31, give surviving fraction of the listed molecule: CNCCc1ccccn1 [Betahistine mesylate]
1.09

Name the recorded surviving fraction of C=C[C@H]1CN2CC[C@H]1C[C@@H]2[C@@H](O)c1ccnc2ccc(OC)cc12 [Quinidine hydrochloride monohydrate] , assay system E31.
0.944

Return reported surviving fraction for target or system E31, item `COc1cc(/C=C/C(=O)N2CCC=CC2=O)cc(OC)c1OC` .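 Note: nuclei counted by high-content imaging of Hoechst-stained cells in laminin-coated 384-well plates, relative to 0.1% DMSO vehicle wells, with staurosporine as cell-death control.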
0.684

# lookup: E31 surviving fraction, key = CC(=O)CC(c1ccc([N+](=O)[O-])cc1)c1c(O)c2ccccc2oc1=O (stereo not drawn)
0.955

Under E31: report surviving fraction of `CN1C(=O)OC(C)(C)C1=O` .
1.01

----------
Please provide measured phenotypic distance for the entries that follow.
Test system: E13 (patient-derived glioblastoma stem cells of classical subtype)
Assay: phenotypic distance (Euclidean, principal components) from DMSO controls (arbitrary units); higher = stronger morphological change
Details: 4.1 nM; exposure time: 72 h
Counter-ions that a name gives are not always drawn.
Simply state the number, no unit and no words.

Give the reported value of phenotypic distance for this record: `CCn1c(-c2nonc2N)nc2cnc(Oc3cccc(NC(=O)c4ccc(OCCN5CCOCC5)cc4)c3)cc21`
2.07

Give reported phenotypic distance value for CC1(C)S[C@@H]2[C@H](NC(=O)Cc3ccccc3)C(=O)N2[C@H]1C(=O)O [Benzylpenicillin sodium]
0.664

Annotate the compound `Oc1c(Cl)cc(Cl)c(Cl)c1Cc1c(O)c(Cl)cc(Cl)c1Cl` with its measured phenotypic distance.
0.81

Recall and state the measured phenotypic distance for COc1cc(OC)c(C(=O)CCCN2CCCC2)c(OC)c1 [Buflomedil hydrochloride] .
0.727

Give the reported phenotypic distance for this compound. CC1=C(/C=C/C(C)=C/C=C/C(C)=C/C(=O)Nc2ccc(O)cc2)C(C)(C)CCC1 [Retinoic acid p-hydroxyanilide]
0.545

Note phenotypic distance for the compound shown: OCCN1CCN(CCCN2c3ccccc3Sc3ccc(C(F)(F)F)cc32)CC1 [Fluphenazine dihydrochloride]
0.431

Quickly give me recorded phenotypic distance for NCCNc1ccc(NCCN)c2c1C(=O)c1ccncc1C2=O [Pixantrone dimaleate]
2.19

Return the recorded phenotypic distance value; entry: `CC(=O)[C@]1(O)Cc2c(O)c3c(c(O)c2[C@@H](O[C@H]2C[C@H](N)[C@H](O)[C@H](C)O2)C1)C(=O)c1ccccc1C3=O`
7.02

Read the entry `COc1cc2c(cc1O)CC[C@@H]1[C@@H]2CC[C@]2(C)[C@@H](O)CC[C@@H]12` and write its reported phenotypic distance.
0.645

Give a short answer stating reported phenotypic distance for `COc1nc(C)nc(Cl)c1NC1=NCCN1` .
0.65

Report measured phenotypic distance; entry is `O=C1c2c(O)ccc(O)c2C(=O)c2c(NCCNCCO)ccc(NCCNCCO)c21`
4.74

# return recorded phenotypic distance for input `Cc1cccn2c(=O)c(-c3nnn[nH]3)cnc12`
0.849

Look up phenotypic distance of C=C[C@H]1CN2CC[C@H]1C[C@@H]2[C@@H](O)c1ccnc2ccc(OC)cc12 [Quinidine hydrochloride monohydrate] and report it.
2.06

State, in one line, measured phenotypic distance of Clc1ccc(COC(Cn2ccnc2)c2ccc(Cl)cc2Cl)c(Cl)c1 (stereo unspecified)
0.853

Answer with reported phenotypic distance of `NC(=O)c1cccc2cn(-c3ccc([C@@H]4CCCNC4)cc3)nc12`
6.4

Output phenotypic distance of `COc1cc(/C=C/C(=O)N2CCC=CC2=O)cc(OC)c1OC`
0.433

----------
Tested on: E21
Assay: phenotypic distance (Euclidean, principal components) from DMSO controls (arbitrary units); higher = stronger morphological change
Conditions: 37 nM; exposure time: 72 h
Counter-ions that a name gives are not always drawn.
Please respond with reported phenotypic distance for every item in the list.
Form: value (number only, do not type unit).

Tell me measured phenotypic distance for CC(NCCC(c1ccccc1)c1ccccc1)c1ccccc1 (stereo not drawn) [Fendiline hydrochloride] please.
0.475

Tell me phenotypic distance reported for CN1[C@@H]2CC[C@H]1CC(OC(=O)c1c[nH]c3ccccc13)C2 (stereo partly drawn) [3-Tropanyl-indole-3-carboxylate hydrochloride]
0.74

Report phenotypic distance for CN1C(=O)OC(C)(C)C1=O [Trimethadione]
0.506

Give me measured phenotypic distance, please, for this compound: Cc1ncc(CO)c(CO)c1O [Pyridoxine hydrochloride]
0.428

Answer with the recorded phenotypic distance of OC[C@H]1NC[C@H](O)[C@@H](O)[C@@H]1O [1-Deoxynojirimycin] only.
0.681

Answer with the recorded phenotypic distance for the compound listed here: `CCN(CC)Cc1ccc(C(=O)N(CCc2ccccc2OC)[C@@H]2CCNC2)cc1`
0.496

Input `Cc1ccc2c(c1)C1(CCN(CCc3nc(-c4ccccc4)oc3C)CC1)OC(=O)N2` , output reported phenotypic distance.
4.58

Look up and report measured phenotypic distance for this entry: `Cc1cc(C)c(CN2CCc3c(Cl)cc(-c4c(C)noc4C)c(Cl)c3C2=O)c(=O)[nH]1`
0.782

Quote phenotypic distance reported for CCOC(=O)OC(C)OC1=C(C(=O)Nc2ccccn2)N(C)S(=O)(=O)c2ccccc21 (stereo not drawn) [Ampiroxicam] please.
0.922

Return phenotypic distance (reported value) for this compound: CNCCCC12CCC(c3ccccc31)c1ccccc12 [Maprotiline hydrochloride]
0.745

Determine its reported phenotypic distance: NC(=O)c1ccccc1 [Benzamide]
0.591

Give the value of phenotypic distance reported for the following: Nc1ccn([C@@H]2O[C@H](CO)[C@@H](O)[C@@H]2O)c(=O)n1 [Cytarabine]
2.73

Name the recorded phenotypic distance of the item `C[C@H](NC(=O)[C@@H](O)c1cc(F)cc(F)c1)C(=O)N[C@@H]1C(=O)N(C)c2ccccc2-c2ccccc21` in your answer.
1.5

Using known records, supply phenotypic distance for `CCn1cc(-c2ccnc3[nH]c(-c4cccc(CN(C)C)c4)cc23)c(-c2ccc(NC(=O)N(C)C)cc2)n1`
5.06

Complete the entry with phenotypic distance for COc1ccc2[nH]c([S+]([O-])Cc3ncc(C)c(OC)c3C)nc2c1 (stereo not drawn) [Omeprazole]
0.543

In one line, give reported phenotypic distance of the entry O=C(Nc1ccc([N+](=O)[O-])cc1Cl)c1cc(Cl)ccc1O [Niclosamide] .
6.49

Kindly indicate its recorded phenotypic distance. Item: Clc1ccc(C(Cn2ccnc2)OCc2ccsc2Cl)c(Cl)c1 (stereo not drawn) [Tioconazole]
0.312

Check the records and state phenotypic distance for Cc1ccc(C(=O)Nc2ccc(CN3CCN(C)CC3)c(C(F)(F)F)c2)cc1C#Cc1cnc2cccnn12 [Ponatinib]
1.87
